Reference for the values: paper PMC8497620

- study-system: C. neoformans Sgl1 (Cryptococcus neoformans var. grubii)
- protocol-notes: H/D exchange mass spectrometry mapping of disordered regions
- reported-conditions: H/D exchange MS of C. neoformans Sgl1; per peptide (amino acids Start-End, Sequence); Fig S2a
Entries and their measured % Deuterium incorporation, Average follow.
parameter: % Deuterium incorporation, Average (%)

1. LVLRGVNLSGSAKHPNNQPSH = 28.6
2. MRLGMGEAQDVQA = 6.8
3. DITSTKFKYAVRVRA = 3.2
4. CIWAHHGVWE = 1.8
5. RVFMDPHQDVW = 3.4
6. IQAPVLRQPPKLPES = 35.7
7. VTIVASHGRVEIQGQTLRWWYPVPGTGEEV = 18.9
8. STNSNSLTNSSATL = 102.1
9. RFTGGSGAPLWTL = 6.3

---

- study-system: C. neoformans Sgl1 (Cryptococcus neoformans var. grubii, UniProt J9W473)
- Sequence (J9W473 entry or part of it): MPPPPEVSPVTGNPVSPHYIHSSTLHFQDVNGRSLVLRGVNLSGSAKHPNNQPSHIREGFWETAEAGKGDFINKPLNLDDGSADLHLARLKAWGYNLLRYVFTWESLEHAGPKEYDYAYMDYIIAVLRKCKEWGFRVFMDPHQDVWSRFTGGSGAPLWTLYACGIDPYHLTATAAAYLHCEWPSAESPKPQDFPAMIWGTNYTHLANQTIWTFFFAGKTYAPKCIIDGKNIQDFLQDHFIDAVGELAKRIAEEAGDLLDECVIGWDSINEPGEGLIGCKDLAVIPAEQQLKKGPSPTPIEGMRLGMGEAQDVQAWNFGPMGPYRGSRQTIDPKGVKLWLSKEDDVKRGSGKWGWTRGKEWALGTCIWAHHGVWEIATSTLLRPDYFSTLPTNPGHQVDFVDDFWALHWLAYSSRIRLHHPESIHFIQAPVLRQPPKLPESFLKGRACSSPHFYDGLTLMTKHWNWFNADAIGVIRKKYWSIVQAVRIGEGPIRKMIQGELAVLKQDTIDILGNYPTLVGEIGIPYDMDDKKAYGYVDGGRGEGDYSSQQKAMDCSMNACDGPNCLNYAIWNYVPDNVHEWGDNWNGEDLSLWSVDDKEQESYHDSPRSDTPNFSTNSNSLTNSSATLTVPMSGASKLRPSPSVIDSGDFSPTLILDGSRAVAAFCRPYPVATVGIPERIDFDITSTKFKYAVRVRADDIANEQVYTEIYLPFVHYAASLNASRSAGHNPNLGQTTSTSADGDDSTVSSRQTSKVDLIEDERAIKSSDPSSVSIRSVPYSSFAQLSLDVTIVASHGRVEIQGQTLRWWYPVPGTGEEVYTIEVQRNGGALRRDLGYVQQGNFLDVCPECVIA
- protocol-notes: H/D exchange mass spectrometry mapping of disordered regions
- reported-conditions: H/D exchange MS of C. neoformans Sgl1; per peptide (amino acids Start-End, Sequence); Fig S2a
parameter: % Deuterium incorporation, Average

1) VLKQDTIDILGNYPTL = 10.8%
2) AYSSRIRLHHPESIHFI = 3.1%
3) RIRLHHPESIHF = 6.5%
4) IGWDSINEPGEGLIGCKDL = 4.5%
5) WNFGPMGPYRGSRQTIDPKGVKL = 28.6%
6) RAIKSSDPSSV = 101.5%
7) PVLRQPPKLPESF = 50.6%
8) WETAEAGKGDF = 47.7%
9) DITSTKFKYAVRVRADDIANE = 9.0%
10) IQAPVLRQPPKLPESFL = 31.8%
11) NADAIGVIRKKYWSIVQ = 33.7%
12) ILDGSRAVAAF = 24.1%
13) LRWWYPVPGTGEEVY = 19.1%
14) LAYSSRIRLHHPESIHF = 4.9%

---

- Test system: human lung epithelial cancer cell line A549
- reported-conditions: A549 cells, 24 h, MTT
# LD50 (lethal dose 50) annotations
parameter: LD50 (lethal dose 50) (µM)

1. CN1C[C@H](Nc2nc(C(C)(C)C)nc3c2cnn3C)C[C@H]1CO = 357
2. Cc1[nH]c2ccc(CNc3nccc(N)n3)cc2c1C = 181.3
3. Cc1ccsc1CN(CCN(C)C)Cc1ccc2nonc2c1 = 301.8
4. CN1C[C@H](NS(=O)(=O)c2cc(Cl)ccc2Cl)C[C@H]1CO = 217.3

---

- study-system: C. neoformans Sgl1 (Cryptococcus neoformans var. grubii, UniProt J9W473)
- protocol-notes: H/D exchange mass spectrometry mapping of disordered regions
- reported-conditions: H/D exchange MS of C. neoformans Sgl1; per peptide (amino acids Start-End, Sequence); Fig S2a
- Method: HDX-MS reactions were performed in a similar manner as is outlined in previous publications. HDX reactions were conducted in a final reaction volume of 50 µL with a final Sgl1 concentration of 0.6 µM (30 pmol). […] Protein sample was rapidly thawed and injected onto a UPLC system kept in a cold box at 2 °C. […] The resulting MS/MS dataset was analyzed using PEAKS7 (PEAKS) and a false discovery rate was set at 1% using a database of purified proteins and known contaminants. […]
parameter: % Deuterium incorporation, Average (%)

1. SRSAGHNPNLGQTTSTSADGDDSTVSSRQTSKVDL = 101.7
2. INKPLNLDDGSADLHL = 21.9
3. ANQTIWTF = -1.6
4. DITSTKF = 7.2
5. LSGSAKHPNNQPSHIREGF = 54.3
6. LDVCPEC = 80.8
7. YAIWNYVPDNVHE = 15.0
8. PVLRQPPKLPES = 47.4
9. STLPTNPGHQVDF = 73.1
10. TVGIPERIDF = 7.3
11. SRSAGHNPNLGQTTSTSADGDD = 102.7
12. WNFGPMGPYRGSRQ = 53.6
13. IDSGDFSPTL = 36.2
14. YVQQGNFL = 101.5
15. ASKLRPSPSV = 76.0
16. VGIPERIDF = 8.3
17. LTVPMSGASKLRPSPSV = 86.0
18. FCRPYPVATVGIPERIDF = 5.0
19. SADGDDSTVSSRQTSKVDL = 103.2
20. YACGIDPYHLTA = 15.5
21. PVLRQPPKLPESFL = 40.7
22. NASRSAGHNPNLGQTTSTSADGDDSTVSSRQTSKVDL = 102.1
23. IIDGKNIQDFLQDHF = 7.4
24. RVFMDPHQDVWSRF = 4.4
25. KYAVRVRADDIANE = 12.4
26. ERAIKSSDPSS = 103.4
27. DVTIVASHGRVEIQGQT = 25.2
28. HDSPRSDTPNF = 91.2
29. WLSKEDDVKRGSGKWGWTRGKEWALGTCI = 17.4
30. HCEWPSAESPKPQDF = 58.4
31. VIRKKYWSIVQ = 49.5
32. RWWYPVPGTGE = 36.9
33. LVLRGVNLSGSAKHPNNQPSHIREGF = 33.7
34. INKPLNL = 46.8
35. LRPDYFSTLPTNPGHQVDF = 37.3
36. STNSNSLTNSSA = 102.0
37. TIDPKGVKL = 7.9
38. TIEVQRNGGAL = 26.9
